Molecular target: recombinant human His-ATG7 enzyme (Homo sapiens (Human))
Test: ATG7 Enzyme Assay (HTRF/FRET, ATG3-GST and Flag-Gabarap)
Type: biochemical
Conditions: Concentration 0.123 μM; read-out: Percent Inhibition
Measured Attribute: inhibition at 0.123 µM (%)
Answers are plain numbers, in %.

Give inhibition at 0.123 µM for each of the items listed below.
1. COC(C)c1nn([C@@H]2O[C@H](COS(N)(=O)=O)[C@@H](O)[C@H]2O)c2ncnc(N)c12 (mixture of isomers)
2. Nc1ncnc2c1c(SCc1ccc(OC(F)(F)F)cc1)nn2[C@@H]1O[C@H](COS(N)(=O)=O)[C@@H](O)[C@H]1O
3. CCSc1nn([C@@H]2O[C@H](COS(N)(=O)=O)[C@@H](O)[C@H]2O)c2ncnc(N)c12
4. Nc1ncnc2c1c(C1CC1)nn2[C@@H]1O[C@H](COS(N)(=O)=O)[C@@H](O)[C@H]1O
5. CC(C)(O)c1nn([C@@H]2O[C@H](COS(N)(=O)=O)[C@@H](O)[C@H]2O)c2ncnc(N)c12
6. Cc1occc1Sc1nn([C@@H]2O[C@H](COS(N)(=O)=O)[C@@H](O)[C@H]2O)c2ncnc(N)c12

[5, 73, 85, 53, 11, 69]

###

Record form. Attribute: IC50. Fill in for each entry.
Target: recombinant human His-ATG7 enzyme (Homo sapiens (Human))
Experiment: ATG7 Enzyme Assay (HTRF/FRET, ATG3-GST and Flag-Gabarap)
Assay type: biochemical
Method: Example 97: ATG7 Enzyme Assay The total volume of the ATG7 enzymatic assay is 50 μL and contains 50 mM HEPES Hemisodium (pH 7.5), 0.05% BSA, 0.01% Tween-20, 25 mM NaCl, 5 mM MgCl2, 10 μM ATP, 250 μM GSH, 5 nM ATG3-GST, 5 nM Flag-Gabarap, 100 μM TCEP and 0.15 nM recombinant human His-ATG7 enzyme. […] After incubation for 2 hours at 24° C., quantification of FRET is performed on the Pherostar™ (BMG Labtech). […]

# example entries with known answers
{"columns": ["Molecule", "Result"],
 "data": [
  ["Cc1cc(Sc2nn([C@@H]3O[C@H](COS(N)(=O)=O)[C@@H](O)[C@@H]3F)c3ncnc(N)c23)c(C)o1", "50 to 100 nM"],
  ["CCSc1nn([C@H]2C[C@H](O)[C@H](COS(N)(=O)=O)O2)c2ncnc(N)c12", "100 to 500 nM"],
  ["CC(CO)Sc1nn([C@@H]2O[C@H](COS(N)(=O)=O)[C@@H](O)[C@@H]2F)c2ncnc(N)c12 (mixture of isomers)", "20 to 50 nM"],
  ["CCN(CC)CCSc1nn([C@@H]2O[C@H](COS(N)(=O)=O)[C@@H](O)[C@@H]2F)c2ncnc(N)c12", "100 to 500 nM"],
  ["Nc1ncnc2c1c(Sc1ccccc1F)nn2[C@H]1C[C@H](O)[C@@H](COS(N)(=O)=O)O1", "50 to 100 nM"]
]}

Dear colleague, please send me the reported IC50 for `CSc1nn([C@H]2C[C@H](O)[C@H](COS(N)(=O)=O)O2)c2ncnc(N)c12` when you can.
100 to 500 nM

###

Molecular target: recombinant human His-ATG7 enzyme (Homo sapiens (Human), UniProt O95352)
Sequence (O95352 whole entry): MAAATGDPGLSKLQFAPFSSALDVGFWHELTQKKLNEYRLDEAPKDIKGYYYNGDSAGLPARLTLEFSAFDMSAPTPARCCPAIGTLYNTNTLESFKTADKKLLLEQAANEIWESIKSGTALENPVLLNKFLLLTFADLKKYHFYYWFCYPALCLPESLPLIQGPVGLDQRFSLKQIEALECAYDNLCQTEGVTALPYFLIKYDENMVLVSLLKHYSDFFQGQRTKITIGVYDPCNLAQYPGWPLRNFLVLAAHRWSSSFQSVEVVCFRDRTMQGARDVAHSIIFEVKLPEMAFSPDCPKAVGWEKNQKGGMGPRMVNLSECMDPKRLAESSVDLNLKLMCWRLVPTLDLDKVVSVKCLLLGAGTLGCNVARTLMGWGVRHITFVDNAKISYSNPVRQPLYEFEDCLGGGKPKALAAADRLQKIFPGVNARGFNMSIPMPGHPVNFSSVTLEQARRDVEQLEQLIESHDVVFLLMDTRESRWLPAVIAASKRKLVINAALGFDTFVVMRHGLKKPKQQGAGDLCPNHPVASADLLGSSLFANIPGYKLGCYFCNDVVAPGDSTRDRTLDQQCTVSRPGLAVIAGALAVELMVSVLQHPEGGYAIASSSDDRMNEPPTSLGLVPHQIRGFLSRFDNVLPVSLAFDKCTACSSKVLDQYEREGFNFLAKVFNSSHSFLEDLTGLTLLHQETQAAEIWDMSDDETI
Assay: ATG7 Enzyme Assay (HTRF/FRET, ATG3-GST and Flag-Gabarap)
Assay type: biochemical
Details: Concentration 0.111 μM; read-out: Percent Inhibition
Procedure: Example 97: ATG7 Enzyme Assay The total volume of the ATG7 enzymatic assay is 50 μL and contains 50 mM HEPES Hemisodium (pH 7.5), 0.05% BSA, 0.01% Tween-20, 25 mM NaCl, 5 mM MgCl2, 10 μM ATP, 250 μM GSH, 5 nM ATG3-GST, 5 nM Flag-Gabarap, 100 μM TCEP and 0.15 nM recombinant human His-ATG7 enzyme. […] After incubation for 2 hours at 24° C., quantification of FRET is performed on the Pherostar™ (BMG Labtech). […]
Exercise: for every item that follows, state its recorded inhibition at 0.111 µM.
Give bare numbers, in %.

{"columns": ["Molecule", "Target System", "Unit String", "inhibition at 0.111 µM"],
 "data": [
  ["Cc1ccc(Sc2nn([C@H]3C[C@H](O)[C@H](COS(N)(=O)=O)O3)c3ncnc(N)c23)cc1", "recombinant human His-ATG7 enzyme (Homo sapiens (Human), UniProt O95352)", "%", 43]
]}

Dear colleague, could you send me inhibition at 0.111 µM for each of the items below? Thanks.
1. Cc1cc(Sc2nn([C@@H]3O[C@H](COS(N)(=O)=O)[C@@H](O)[C@@H]3F)c3ncnc(N)c23)c(C)o1
2. Nc1ncnc2c1c(Sc1cccc(Cl)c1)nn2[C@H]1C[C@H](O)[C@@H](COS(N)(=O)=O)O1
3. Cc1cccc(Sc2nn([C@@H]3O[C@H](COS(N)(=O)=O)[C@@H](O)[C@@H]3F)c3ncnc(N)c23)n1
4. CC(CO)Sc1nn([C@@H]2O[C@H](COS(N)(=O)=O)[C@@H](O)[C@@H]2F)c2ncnc(N)c12 (mixture of isomers)
5. Nc1ncnc2c1c(Sc1ccc3ccccc3c1)nn2[C@H]1C[C@H](O)[C@@H](COS(N)(=O)=O)O1

1: 56; 2: 50; 3: 68; 4: 74; 5: 50

Return the recorded inhibition at 0.111 µM value; entry: `CSc1nn([C@@H]2O[C@@H](COS(N)(=O)=O)[C@@H](O)[C@@H]2F)c2ncnc(N)c12`
44
